Target: JAK1 (Homo sapiens, UniProt P23458)
Sequence (P23458 whole entry): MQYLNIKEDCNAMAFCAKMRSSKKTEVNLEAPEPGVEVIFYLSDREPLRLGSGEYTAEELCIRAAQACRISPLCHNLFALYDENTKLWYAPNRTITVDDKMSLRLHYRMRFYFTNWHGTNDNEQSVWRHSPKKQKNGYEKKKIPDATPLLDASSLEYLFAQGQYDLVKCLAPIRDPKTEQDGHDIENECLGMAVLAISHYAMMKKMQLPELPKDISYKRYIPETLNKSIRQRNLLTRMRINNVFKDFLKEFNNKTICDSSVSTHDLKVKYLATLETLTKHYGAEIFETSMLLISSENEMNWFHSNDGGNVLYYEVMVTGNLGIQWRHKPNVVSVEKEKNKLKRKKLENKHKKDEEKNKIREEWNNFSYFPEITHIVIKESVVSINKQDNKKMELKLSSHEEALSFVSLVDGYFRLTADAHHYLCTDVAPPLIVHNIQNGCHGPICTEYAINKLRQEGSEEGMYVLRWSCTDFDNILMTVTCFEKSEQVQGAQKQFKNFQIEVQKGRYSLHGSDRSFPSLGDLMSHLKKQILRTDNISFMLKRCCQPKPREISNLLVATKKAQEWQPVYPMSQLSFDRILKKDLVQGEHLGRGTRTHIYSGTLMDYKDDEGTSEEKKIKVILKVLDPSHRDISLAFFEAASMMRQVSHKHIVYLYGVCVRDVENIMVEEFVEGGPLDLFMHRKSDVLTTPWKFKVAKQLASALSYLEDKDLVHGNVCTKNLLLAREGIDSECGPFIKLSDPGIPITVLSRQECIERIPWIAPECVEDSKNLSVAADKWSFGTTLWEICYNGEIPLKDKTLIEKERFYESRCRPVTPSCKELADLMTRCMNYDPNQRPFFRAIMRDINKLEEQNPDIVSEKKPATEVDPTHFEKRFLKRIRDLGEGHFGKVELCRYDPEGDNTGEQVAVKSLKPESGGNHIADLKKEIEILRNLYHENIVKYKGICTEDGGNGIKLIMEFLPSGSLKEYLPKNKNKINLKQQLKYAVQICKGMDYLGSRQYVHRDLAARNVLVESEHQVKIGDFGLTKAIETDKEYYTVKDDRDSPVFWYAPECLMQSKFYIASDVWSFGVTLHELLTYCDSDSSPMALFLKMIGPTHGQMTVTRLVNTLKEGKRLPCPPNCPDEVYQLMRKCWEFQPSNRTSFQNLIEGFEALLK
Test: Inhibition of JAK kinase activity, EZ Reader microfluidic phosphorylation of peptide substrate: JAK1
Format: biochemical
Conditions: JAK1 kinase 20 nM; highest final concentration 10 μM, 1:3 serial dilution, 8 points, duplicates
The following molecules are shown together with reported IC50 values.

[
  {
    "Compound": "CCCC(=O)N1CCC(n2cc(-c3ccnc(Nc4cnn(C)c4)n3)cn2)CC1",
    "IC50": "≥ 10 µM"
  },
  {
    "Compound": "Cn1cc(Nc2nccc(-c3ccc(C4(CC#N)CN(C(=O)CC(F)(F)F)C4)cc3)n2)cn1",
    "IC50": "0.1 to 1 µM"
  },
  {
    "Compound": "CC(=O)N1CCN(c2ccc(-c3ccnc(Nc4cnn(C)c4)n3)cc2)CC1",
    "IC50": "1 to 10 µM"
  },
  {
    "Compound": "CCS(=O)(=O)N1CC(CC#N)(n2ccc(-c3ccnc(Nc4cnn(C)c4)n3)c2)C1",
    "IC50": "0.1 to 1 µM"
  },
  {
    "Compound": "Cn1cc(Nc2nccc(-c3cnn(C4(CC#N)CN(S(=O)(=O)CCCCl)C4)c3)n2)cn1",
    "IC50": "0.1 to 1 µM"
  },
  {
    "Compound": "COCC(=O)N1CC(CC#N)(n2cc(-c3ccnc(Nc4cnn(C)c4)n3)cn2)C1",
    "IC50": "1 to 10 µM"
  },
  {
    "Compound": "Cn1cc(Nc2nccc(-c3ccn(C4(CC#N)CN(S(=O)(=O)C5CC5)C4)n3)n2)cn1",
    "IC50": "0.1 to 1 µM"
  },
  {
    "Compound": "Cn1cc(Nc2nccc(-c3cnn(C4(CC#N)CN(C(=O)C5CC5)C4)c3)n2)cn1",
    "IC50": "0.1 to 1 µM"
  }
]

====

Target: JAK2 (Homo sapiens)
Sequence (O60674 whole entry): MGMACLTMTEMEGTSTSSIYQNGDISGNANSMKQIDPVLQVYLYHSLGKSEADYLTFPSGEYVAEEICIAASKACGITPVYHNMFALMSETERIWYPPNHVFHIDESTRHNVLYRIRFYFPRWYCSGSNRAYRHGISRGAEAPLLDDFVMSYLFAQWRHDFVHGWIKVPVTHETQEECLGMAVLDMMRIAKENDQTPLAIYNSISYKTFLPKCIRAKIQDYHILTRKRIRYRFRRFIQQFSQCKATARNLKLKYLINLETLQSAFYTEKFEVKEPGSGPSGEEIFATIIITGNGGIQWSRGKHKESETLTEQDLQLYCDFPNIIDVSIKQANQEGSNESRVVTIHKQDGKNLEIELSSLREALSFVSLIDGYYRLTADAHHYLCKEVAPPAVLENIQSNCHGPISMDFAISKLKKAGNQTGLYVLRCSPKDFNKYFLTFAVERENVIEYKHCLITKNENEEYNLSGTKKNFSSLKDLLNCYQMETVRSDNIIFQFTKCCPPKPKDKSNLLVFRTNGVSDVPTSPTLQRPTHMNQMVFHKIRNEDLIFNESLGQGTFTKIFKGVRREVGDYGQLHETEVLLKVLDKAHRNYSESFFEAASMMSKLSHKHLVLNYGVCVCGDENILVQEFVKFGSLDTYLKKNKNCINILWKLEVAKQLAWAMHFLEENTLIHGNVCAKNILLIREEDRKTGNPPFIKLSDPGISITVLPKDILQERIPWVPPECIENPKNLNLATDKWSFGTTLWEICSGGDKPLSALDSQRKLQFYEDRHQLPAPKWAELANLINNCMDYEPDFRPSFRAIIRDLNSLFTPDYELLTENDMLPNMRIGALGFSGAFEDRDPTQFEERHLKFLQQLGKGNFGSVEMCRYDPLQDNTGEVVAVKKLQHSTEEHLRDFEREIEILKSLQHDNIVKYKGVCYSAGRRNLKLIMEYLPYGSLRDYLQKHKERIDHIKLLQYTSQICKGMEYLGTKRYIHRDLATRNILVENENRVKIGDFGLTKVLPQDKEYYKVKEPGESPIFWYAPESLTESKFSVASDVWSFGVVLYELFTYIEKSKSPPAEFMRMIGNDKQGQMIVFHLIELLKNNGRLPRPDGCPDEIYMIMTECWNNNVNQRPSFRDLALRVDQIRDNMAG
Assay: Inhibition of JAK kinase activity, EZ Reader microfluidic phosphorylation of peptide substrate: JAK2
Format: biochemical
Conditions: JAK2 kinase 1 nM; highest final concentration 10 μM, 1:3 serial dilution, 8 points, duplicates
Some compounds, each annotated with its measured IC50.

[
  {
    "Compound": "Cn1cc(Nc2nccc(-c3cnn(C4CCN(C(=O)C5CC5(F)F)CC4)c3)n2)cn1 (stereo not shown)",
    "IC50": "≥ 10 µM"
  },
  {
    "Compound": "CCCS(=O)(=O)N1CC(CC#N)(n2cc(-c3ccnc(Nc4cnn(C)c4)n3)cn2)C1",
    "IC50": "0.1 to 1 µM"
  },
  {
    "Compound": "CCCS(=O)(=O)N1CCC(n2cc(-c3ccnc(Nc4cnn(C)c4)n3)cn2)CC1",
    "IC50": "1 to 10 µM"
  },
  {
    "Compound": "CC(=O)N1CCN(c2ccc(-c3ccnc(Nc4cnn(C)c4)n3)cc2)CC1",
    "IC50": "0.1 to 1 µM"
  }
]

====

Target: UniProtKB P29597
Sequence (P29597 whole entry): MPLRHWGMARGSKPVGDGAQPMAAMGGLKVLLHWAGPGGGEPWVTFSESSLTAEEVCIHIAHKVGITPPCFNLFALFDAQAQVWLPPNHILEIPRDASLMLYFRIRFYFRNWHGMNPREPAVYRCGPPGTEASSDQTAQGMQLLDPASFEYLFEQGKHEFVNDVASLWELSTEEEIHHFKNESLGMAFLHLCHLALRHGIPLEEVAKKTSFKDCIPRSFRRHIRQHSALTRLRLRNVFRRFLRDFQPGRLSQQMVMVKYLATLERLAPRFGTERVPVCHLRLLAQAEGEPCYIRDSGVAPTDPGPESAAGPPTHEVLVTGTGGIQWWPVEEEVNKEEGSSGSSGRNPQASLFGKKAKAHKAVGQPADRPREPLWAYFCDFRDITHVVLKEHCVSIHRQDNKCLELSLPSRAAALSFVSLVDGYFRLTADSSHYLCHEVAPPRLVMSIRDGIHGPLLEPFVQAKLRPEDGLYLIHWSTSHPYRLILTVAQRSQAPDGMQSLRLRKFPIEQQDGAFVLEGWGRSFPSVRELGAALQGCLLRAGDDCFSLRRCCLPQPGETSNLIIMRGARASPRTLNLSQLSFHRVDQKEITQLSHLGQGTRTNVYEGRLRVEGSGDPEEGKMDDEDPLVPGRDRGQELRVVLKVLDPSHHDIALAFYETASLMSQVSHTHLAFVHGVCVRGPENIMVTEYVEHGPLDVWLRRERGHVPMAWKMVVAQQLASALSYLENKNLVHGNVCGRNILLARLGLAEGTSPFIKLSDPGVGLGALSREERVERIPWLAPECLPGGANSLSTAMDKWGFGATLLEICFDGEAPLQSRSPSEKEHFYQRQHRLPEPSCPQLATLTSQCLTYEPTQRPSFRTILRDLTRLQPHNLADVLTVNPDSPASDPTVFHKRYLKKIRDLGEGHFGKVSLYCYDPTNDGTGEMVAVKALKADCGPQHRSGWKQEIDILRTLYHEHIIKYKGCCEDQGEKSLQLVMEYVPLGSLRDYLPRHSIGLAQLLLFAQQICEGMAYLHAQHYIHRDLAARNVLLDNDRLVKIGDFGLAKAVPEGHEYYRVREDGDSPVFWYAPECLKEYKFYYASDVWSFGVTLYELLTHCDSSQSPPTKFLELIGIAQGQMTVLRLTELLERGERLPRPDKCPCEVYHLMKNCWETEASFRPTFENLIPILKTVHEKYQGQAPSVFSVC
Experiment: Inhibition of JAK kinase activity, EZ Reader microfluidic phosphorylation of peptide substrate: Tyk2
Format: biochemical
Conditions: Tyk2 kinase 1 nM; highest final concentration 10 μM, 1:3 serial dilution, 8 points, duplicates

[
  {
    "Molecule": "Cn1cc(Nc2nccc(-c3cnn(C4CN(C(=O)CC#N)C4)c3)n2)cn1",
    "IC50": "≥ 10 µM"
  },
  {
    "Molecule": "CCCS(=O)(=O)N1CCC(n2cc(-c3ccnc(Nc4cnn(C)c4)n3)cn2)C1 (stereo not shown)",
    "IC50": "1 to 10 µM"
  },
  {
    "Molecule": "CCCS(=O)(=O)N1CC(CC#N)(n2ccc(-c3ccnc(Nc4cnn(C)c4)n3)c2)C1",
    "IC50": "0.1 to 1 µM"
  },
  {
    "Molecule": "CCS(=O)(=O)N1CC(CC#N)(n2ccc(-c3ccnc(Nc4cnn(C)c4)n3)c2)C1",
    "IC50": "< 0.1 µM"
  }
]
